Documented % binding of the fluorescently labeled mAb (IgG pre-incubation = 100) across a set of binders
- assay.system: T1, human CD103 (integrin Alpha-E) / human integrin Beta-7 heterodimer on cells (human, UniProt P38570 19-1179; P26010 20-798)
- T1 construct: the assay field tells which cells; also called hCD103/hBeta7; CHO.K1-hCD103/hBeta7
- T1 sequence (P38570 19-1179 limits assumed, chain 1 of 2): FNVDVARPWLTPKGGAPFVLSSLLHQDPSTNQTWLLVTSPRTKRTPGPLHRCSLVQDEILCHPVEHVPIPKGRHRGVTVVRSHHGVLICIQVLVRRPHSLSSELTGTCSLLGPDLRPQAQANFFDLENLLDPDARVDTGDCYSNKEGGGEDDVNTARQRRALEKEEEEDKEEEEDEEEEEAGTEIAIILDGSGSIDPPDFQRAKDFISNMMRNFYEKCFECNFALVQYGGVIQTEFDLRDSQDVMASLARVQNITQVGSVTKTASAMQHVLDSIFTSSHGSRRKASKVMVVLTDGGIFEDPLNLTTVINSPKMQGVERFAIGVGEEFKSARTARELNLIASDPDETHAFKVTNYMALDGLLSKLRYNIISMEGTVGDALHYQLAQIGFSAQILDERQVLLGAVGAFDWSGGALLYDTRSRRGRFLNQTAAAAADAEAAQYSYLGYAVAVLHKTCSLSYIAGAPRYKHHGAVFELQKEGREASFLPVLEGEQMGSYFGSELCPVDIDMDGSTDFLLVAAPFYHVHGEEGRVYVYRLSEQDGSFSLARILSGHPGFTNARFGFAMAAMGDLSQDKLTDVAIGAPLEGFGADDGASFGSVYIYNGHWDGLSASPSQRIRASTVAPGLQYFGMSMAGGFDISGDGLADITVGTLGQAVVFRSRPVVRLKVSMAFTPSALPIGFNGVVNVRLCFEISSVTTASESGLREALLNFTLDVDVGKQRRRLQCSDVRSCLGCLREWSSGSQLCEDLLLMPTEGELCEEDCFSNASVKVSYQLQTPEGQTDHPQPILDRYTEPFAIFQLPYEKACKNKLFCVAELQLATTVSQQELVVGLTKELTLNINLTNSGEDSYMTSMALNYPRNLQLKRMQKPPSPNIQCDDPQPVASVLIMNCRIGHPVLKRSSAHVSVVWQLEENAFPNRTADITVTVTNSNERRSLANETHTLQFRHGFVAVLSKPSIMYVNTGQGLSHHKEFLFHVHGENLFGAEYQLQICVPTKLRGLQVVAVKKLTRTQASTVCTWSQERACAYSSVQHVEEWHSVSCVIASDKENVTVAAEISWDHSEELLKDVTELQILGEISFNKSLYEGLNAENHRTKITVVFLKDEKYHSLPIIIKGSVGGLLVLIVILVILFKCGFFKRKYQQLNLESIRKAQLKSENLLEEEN
- T1 sequence (P26010 20-798 limits assumed, chain 2 of 2): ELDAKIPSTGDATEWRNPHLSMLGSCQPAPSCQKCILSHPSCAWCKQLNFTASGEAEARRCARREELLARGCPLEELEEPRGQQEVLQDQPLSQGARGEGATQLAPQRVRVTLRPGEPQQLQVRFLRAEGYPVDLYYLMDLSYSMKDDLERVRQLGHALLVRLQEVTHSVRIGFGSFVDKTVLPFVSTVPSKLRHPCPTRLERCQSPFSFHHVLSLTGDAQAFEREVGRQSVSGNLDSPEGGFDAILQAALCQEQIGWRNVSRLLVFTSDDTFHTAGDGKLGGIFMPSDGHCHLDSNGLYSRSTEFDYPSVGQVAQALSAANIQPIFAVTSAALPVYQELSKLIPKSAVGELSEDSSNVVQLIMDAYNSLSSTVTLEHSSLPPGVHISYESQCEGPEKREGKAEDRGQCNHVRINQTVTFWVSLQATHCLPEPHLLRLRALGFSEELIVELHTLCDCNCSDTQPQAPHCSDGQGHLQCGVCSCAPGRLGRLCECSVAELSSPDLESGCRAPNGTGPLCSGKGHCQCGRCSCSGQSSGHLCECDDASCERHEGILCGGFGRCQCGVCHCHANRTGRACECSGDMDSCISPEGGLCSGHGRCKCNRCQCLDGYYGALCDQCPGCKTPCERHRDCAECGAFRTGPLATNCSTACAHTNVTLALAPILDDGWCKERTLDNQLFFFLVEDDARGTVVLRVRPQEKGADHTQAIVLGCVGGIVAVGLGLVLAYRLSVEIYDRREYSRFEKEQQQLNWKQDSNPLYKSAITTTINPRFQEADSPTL
- experiment: flow cytometry competition on CD103+CD8+ T cells; pre-incubation with unlabeled MCA708 (f4); table n=1
measured.attribute: % binding of the fluorescently labeled mAb (IgG pre-incubation = 100) (%)

| binder | numeric.result |
| --- | --- |
| hCD103.06A (antibody, mouse IgG1, V domains shown, also called clone 06A; hCD103.06 mAb) VH: QVQLQQPGSELVRPGASVKLSCKASGYTFTSYWMHWVKQRHGQGLEWIGNIYPGSGSTNYDEKFKSKGTLTVDTSSSTAYMHLSSLTSEDSAVYYCTRGVYDNPYYFDYWGQGTTLTVSS VL: DIQMTQSSSNLSVSLGGRVTITCKASDHINNWLAWYQQKPGNAPRVLISGATSLETGVPSRFSGSGSGKDYTLSITSLQTEDVATYYCQQYWSIPLTFGAGTKLELK | 0.7 |
| hCD103.01A (antibody, V domains shown, Also tested labelled with AF647, conjugated with Df and labelled with 89Zr; these are written under this molecule; also called clone 01A; hCD103.01 mAb) VH: EVQLQESGPSLVKPSQTLSLTCSVTGDSITSGYWNWIRKFPGNKLEYMGYITYSGSTYYNPSLKSRISITRDTSKNQYYLQLNSVTTEDTATYYCTRHYYGSDAMDYWGQGTSVTVSS VL: DIVMTQSHKFMSTSVGDRVSITCKASQDVSIAVAWYQQRPGQSPKLLIYSASYRYTGVPDRFTGSGSGTDFTFTISSVQAEDLAVYYCQQHYSTPWTFGGGTKLEIK | 83.9 |
| hCD103.07A (antibody, mouse IgG1, V domains shown, also called clone 07A) VH: EVQLQESGPSLVKPSQTLSLTCSVTGDSITSGYWNWIRKFPGNKLEYMGYITYSGSTYYNPSLKSRISITRDTSKNQYYLQLNSVTTEDTATYYCARNYYGSSSMDYWGQGTSVTVSS VL: DIVMTQSQKFMSTSVADRVSVTCKASQNVGSDVAWYQQKPGQSPKSLIYSASYRYSGVPDRFTGSGSGTDFTLTISNVQSEDLAEYFCQQYNSYPSTFGGGTKLEIK | 92 |
| hCD103.05A (antibody, mouse IgG1, V domains shown, Also tested labelled with AF647, conjugated with Df and labelled with 89Zr; these are written under this molecule; also called clone 05A; hCD103.05 mAb) VH: EVQLQQSGPELEKPGASAKISCKASGYSFTGYNMNWVKQSNGKSLEWIGNIDPYYGGTSYNQKFKGKATLTVDKSSSTAYMQLKSLTSEDSAVYYCARSFYGYDAGSPYNYAMDYWGQGTPVTVSP VL: DIVMTQSHKFMSTSVGDRVSITCKASQDVGTFVAWYQQKPGQSPKLLIYWASTRHTGVPDRFTGSGSGTDFTLTISNVQSEDLADYFCHQYSSYPYTFGGGTQLEIK | 94.6 |
